# Test system: Plasmodium berghei
# procedure_details: Screen against P. berghei liver stage (PbLuc), transformed with Luciferase, at 10uM
# Type: functional, HepG2
# test_parameters: tested at 10 uM
The whole screen tested about 69,000 compounds, of which about 8,600 (12%) showed an effect of 50% or more. The sample holds strong results, similar compounds and a random draw of the others, so the mix is not that of the screen.
assay_metric: INHIBITION (%)
Give just the numeric value; % need not be written.

The molecule listed as CNC(=O)[C@@H]1C[C@@H](n2cc(-c3ccc(Cl)cc3)nn2)CN1 has a reported INHIBITION of 43.9

The molecule listed as CCc1cc(N2CCC(NCCc3ccccc3F)CC2)nc(C)n1 has a reported INHIBITION of 11

The molecule listed as Cc1noc(C)c1C(=O)NCC(C)N1CCc2ccccc21 (centres undefined) has a reported INHIBITION of 13.6

The molecule listed as CCN(CC)C(=O)[C@@H]1C[C@H](n2cc(-c3ccccn3)nn2)CN1 has a reported INHIBITION of 34

====

# System: Plasmodium berghei
# procedure_details: Screen against P. berghei liver stage (PbLuc), transformed with Luciferase, at 10uM
# Type: functional, HepG2
# test_parameters: tested at 10 uM
Screen size: about 69,000 compounds; about 8,600 (12%) showed an effect of 50% or more. Only a selection was taken, and strong results are over-represented in it overall.
Hi there, I'd appreciate the recorded INHIBITION for every entry that follows.
Express your answer as a number followed by its unit.

The compound listed as CSC(C)C(=O)NCCC(=O)N1CCN(c2ccccn2)CC1 (stereo unspecified) has a reported INHIBITION of 39.2%

The compound listed as CC(C)(C)c1n[nH]c(C2CN(C(=O)c3cnc[nH]3)CCO2)n1 (stereo unspecified) has a reported INHIBITION of -42.1%

The compound listed as COc1coc(CN2CCCC(CCc3ccccc3F)C2)cc1=O (stereo unspecified) has a reported INHIBITION of 60.4%

The compound listed as Cc1[nH]c(=O)[nH]c(=O)c1CN1CCCC(CCc2ccccc2F)C1 (stereo unspecified) has a reported INHIBITION of 19.7%

The compound listed as COc1cccc(F)c1CN1CCC(c2nc(C)cc(C)n2)C1 (stereo unspecified) has a reported INHIBITION of 43.45%

The compound listed as O=c1cc(CN2CCCC(CCc3c(F)cccc3F)C2)[nH]c(=O)[nH]1 (stereo unspecified) has a reported INHIBITION of 58.5%

The compound listed as Cc1ccc2[nH]c(=O)c(CNCCCN3CCOCC3)cc2c1 has a reported INHIBITION of -37%

The compound listed as CCn1ncc(CN(C)C(=O)c2ccn(C)n2)c1C has a reported INHIBITION of 30%

The compound listed as O=C(c1cnccn1)N1CCCC2(CCN(Cc3cccnc3)C2)C1 (stereo unspecified) has a reported INHIBITION of -19.5%

The compound listed as O=C(c1ccc2[nH]ccc2c1)N1Cc2nc(CN3CCCCC3)oc2C1 has a reported INHIBITION of 50.7%

The compound listed as CC[C@H]1NCCC[C@]12CCC(=O)N2Cc1ccncc1 has a reported INHIBITION of 17.4%

====

# Tested on: Plasmodium berghei
# procedure_details: Screen against P. berghei liver stage (PbLuc), transformed with Luciferase, at 10uM
# Type: functional, HepG2
# test_parameters: tested at 10 uM
In all, about 69,000 compounds went through this assay and about 8,600 (12%) showed an effect of 50% or more. This excerpt belongs to a sample that is enriched for strong results.
Bucketed by reported INHIBITION, buckets being Low = under 10%, Mid = from 10% up to 40%, High = 40% and over

// query Just checking, what class would you give Nc1cc(-c2cc(O)cc(C(=O)O)c2)c2cc[nH]c2n1 here?
// result Mid

// query Just checking, what class would you give Cc1cc(CNC(=O)N2CCN(c3ccc(Cl)cn3)CC2)c(C)o1 here?
// result High

// query Just checking, what class would you give COc1cc(-c2cc(OC)c(OC)c(OC)c2)ncn1 here?
// result Low

// query Just checking, what class would you give Cc1ccoc1C(=O)N1CCc2ncnc(-c3cnn(C)c3)c2CC1 here?
// result Low

// query Just checking, what class would you give Cc1cc(CNC(=O)N2CCN(c3nc(C)c(C)s3)CC2)no1 here?
// result High

// query Just checking, what class would you give Cc1occc1C(=O)N1CCCN(Cc2nccn2C)CC1 here?
// result Mid

// query Just checking, what class would you give Cc1nn(C)c(N2CCCN(C)CC2)c1CNC(=O)C(C)(C)C here?
// result Low

// query Just checking, what class would you give O=C(CCc1nccs1)N1CCN(c2ccc(Cl)cn2)CC1 here?
// result Mid

// query Just checking, what class would you give O=C(CCc1nc(-c2cccnc2)no1)NCC1CCN(C2CC2)C1 (stereo not given) here?
// result Mid

// query Just checking, what class would you give CN(CCO)CC1COCCN1C(=O)C1(c2cccs2)CCCC1 (stereo not given) here?
// result Mid

// query Just checking, what class would you give O=C(c1ccc2c(c1)CCC2)N1CCN(c2ccc(Cl)cn2)CC1 here?
// result Mid

// query Just checking, what class would you give O=C(CCc1nc(-c2ccsc2)no1)NCC1CCN(C2CC2)C1 (stereo not given) here?
// result High

// query Just checking, what class would you give Cc1nc(CNC(=O)N2CCN(c3ccc(Cl)cn3)CC2)sc1C here?
// result High

// query Just checking, what class would you give CNC(=O)CN1CCOCC2(C1)CN(Cc1csnn1)CCO2 (stereo not given) here?
// result High

// query Just checking, what class would you give CCc1nnc(CNC2CCCN(Cc3noc(C4CC4)n3)C2)o1 (stereo not given) here?
// result Low

====

Hi there, I'd appreciate the recorded INHIBITION for every entry that follows.
# System: Plasmodium berghei
# procedure_details: Screen against P. berghei liver stage (PbLuc), transformed with Luciferase, at 10uM
# Format: functional, HepG2
# test_parameters: tested at 10 uM
Hit rate of the full screen: of about 69,000 compounds, about 8,600 (12%) showed an effect of 50% or more. The sample holds strong results, similar compounds and a random draw of the others, so the mix is not that of the screen.
Give just the numeric value; % need not be written.

The compound listed as Cc1nccn1CCCn1cncc1-c1ccc2c(c1)CCC(C)N2C (stereo not given) has a reported INHIBITION of 87.7

The compound listed as Fc1ccc(-c2nc(CNCCn3cccn3)cs2)cc1 has a reported INHIBITION of 4.02

The compound listed as Cc1cc(C)n(CC(=O)N2CCC(c3ccn4nccc4n3)CC2)n1 has a reported INHIBITION of 19.5

The compound listed as O=C(CCc1ccccc1Br)NS(=O)(=O)c1ccc2c(c1)OCCO2 has a reported INHIBITION of 25.6

The compound listed as Fc1ccc(-c2n[nH]cc2CNCCn2cccn2)cc1 has a reported INHIBITION of 77.6

====

# Test system: Plasmodium berghei
# procedure_details: Screen against P. berghei liver stage (PbLuc), transformed with Luciferase, at 10uM
# Type: functional, HepG2
# test_parameters: tested at 10 uM
The campaign covered roughly 69,000 compounds. About 8,600 (12%) showed an effect of 50% or more. Only a selection was taken, and strong results are over-represented in it overall.
assay_metric: INHIBITION (%)
Give just the numeric value; % need not be written.

The molecule listed as Cc1cccc(N2CCCC2c2nc(C)ncc2CN(C)C)n1 (configuration not stated) has a reported INHIBITION of -3.94

The molecule listed as CSc1ccccc1CN1CCn2nc(CNC(C)=O)cc2C1 has a reported INHIBITION of 55.4

The molecule listed as COCc1nc(-c2ccnc(N3CCNCC3)n2)no1 has a reported INHIBITION of 38.3

The molecule listed as O=C(NCc1ccccn1)[C@@H]1COC[C@H]2CN(C3CCC3)C[C@H]21 has a reported INHIBITION of 26.4

The molecule listed as COc1c(CNCC(=O)N2CCN(C)CC2)c(C(C)C)nn1C has a reported INHIBITION of 42.1

The molecule listed as Cc1cnc(CC2COCCN(C(=O)c3cncnc3)C2)cn1 (configuration not stated) has a reported INHIBITION of -13.2

The molecule listed as CN(C)c1cc(CNC(=O)NCC2(C)CCCS2)ccn1 (configuration not stated) has a reported INHIBITION of -15.5

The molecule listed as CC(=O)NCc1cc2n(n1)CCN(Cc1ccccc1OC(F)(F)F)C2 has a reported INHIBITION of 53.8

The molecule listed as Cc1ccc(S(=O)(=O)NC(=O)C2(c3ccccc3)CCC2)c(C)c1 has a reported INHIBITION of 21.1

The molecule listed as CC(NC(=O)NCCCN1CCCC1=O)c1nncn1C (configuration not stated) has a reported INHIBITION of -7.31

The molecule listed as CCc1cc(NCC(O)CN2CCCCC2)ncn1 (configuration not stated) has a reported INHIBITION of 27.4

The molecule listed as CCOCC(O)CN1CCN(C(=O)c2cccc(OC)c2)CC1 (configuration not stated) has a reported INHIBITION of -33.7

The molecule listed as COCCN1C(=O)CCC12CCC(NCc1nccs1)CC2 (configuration not stated) has a reported INHIBITION of 10.5

The molecule listed as CCN1CCN(c2ccc(C(=O)NCCOC)cc2F)CC1 has a reported INHIBITION of 76.7

The molecule listed as CC(C)N1CC2(CCCN(c3ccnc4ccccc34)C2)CCC1=O (configuration not stated) has a reported INHIBITION of 65.1

The molecule listed as CCN(CC)c1ncccc1CNCc1ccc(Cl)s1 has a reported INHIBITION of 49.4

The molecule listed as CSc1ccccc1CN1CCCn2nc(CNC(=O)N(C)C)cc2C1 has a reported INHIBITION of -19.4

The molecule listed as CC(C)CN1CC(c2nc(-c3ccsc3)c[nH]2)CC1=O (configuration not stated) has a reported INHIBITION of 53.3

The molecule listed as COCCN1CCC(Nc2c(F)cc(C#N)cc2F)CC1 has a reported INHIBITION of -3.58

The molecule listed as Cc1cnn(C2CN(CCCOc3ccc(C#N)cc3)C2)c1 has a reported INHIBITION of 49

The molecule listed as CCc1ccccc1CN1CCn2nc(CNC(C)=O)cc2C1 has a reported INHIBITION of 22

The molecule listed as Cc1nccc(N2C[C@@H](CN3CCCC3)[C@@H](CO)C2)n1 has a reported INHIBITION of 13

The molecule listed as CCOC(=O)CCC(=O)NC(C)c1ccc(NC(=O)CC)cc1 (configuration not stated) has a reported INHIBITION of 37.1

The molecule listed as COc1ccc(-c2c[nH]c(C3CC(=O)N(CC(C)C)C3)n2)cc1 (configuration not stated) has a reported INHIBITION of -15

The molecule listed as CCc1nnc2n1CC(CNc1cnc3ccccc3n1)CC2 (configuration not stated) has a reported INHIBITION of 27.6

The molecule listed as Cn1ccnc1CN1CCN(CCOc2ccccc2C#N)CC1 has a reported INHIBITION of 44.8

The molecule listed as Cc1cc(-c2ccccc2C(=O)O)nc(C2CCCN(C(C)C)C2)n1 (configuration not stated) has a reported INHIBITION of 13

The molecule listed as CC(C)(C)c1cc(NC(=O)C2CCCO2)n(-c2ccccn2)n1 (configuration not stated) has a reported INHIBITION of 52.5

The molecule listed as CSc1nccc(N2C[C@@H](CN3CCCCC3)[C@@H](CO)C2)n1 has a reported INHIBITION of 55.7

The molecule listed as CCSCc1ccnc(NC(=O)C2CCCO2)c1 (configuration not stated) has a reported INHIBITION of -4.26

The molecule listed as Cc1cccc(CN2C(=O)CCC23CCN(Cc2nccn2C)CC3)n1 has a reported INHIBITION of 37.2

The molecule listed as CC(C)CN1CC(c2nc(-c3ccc(F)cc3)c[nH]2)CC1=O (configuration not stated) has a reported INHIBITION of 27.5

The molecule listed as CC(C)c1nnc2n1CC(CNc1cnc3ccccc3n1)CC2 (configuration not stated) has a reported INHIBITION of 43.4

The molecule listed as CCN1CCN(c2ccc(C(=O)NCc3cc(C)no3)cc2F)CC1 has a reported INHIBITION of 11.7

The molecule listed as Cc1cncc(C(=O)N2CCC3(CCCN(c4nncs4)C3)C2)c1 (configuration not stated) has a reported INHIBITION of 41.2

The molecule listed as CCOc1ccc(S(=O)(=O)NC(=O)CC2CCCO2)cc1 (configuration not stated) has a reported INHIBITION of -4.94

The molecule listed as O=C(c1ccccn1)N1CCC2(CC1)COC(COCC1CC1)C2 (configuration not stated) has a reported INHIBITION of 23.5
